# Test: AUC in plasma of healthy human at 500 mg, po administered at tablet formulation with maximum release by microdialysis
# Format: ADME, organism-based
Assay Metric: AUC (ng·h/mL)
Unit ng·h/mL implied. Number only.

Which AUC value belongs to N[C@@H](C(=O)N[C@@H]1C(=O)N2C(C(=O)O)=C(Cl)CS[C@H]12)c1ccccc1 [CEFACLOR ANHYDROUS] ?
13700

====

# Test: AUClast in muscle of healthy human at 200 mg/l administered via microdialysis probe up to 12 hrs
# Type: ADME, tissue-based, Muscle tissue
# Set-up: time < 12 hr
Assay Metric: AUC(0-t) at 12 h (ng·h/mL)
Unit ng·h/mL implied. Number only.

Which AUC(0-t) at 12 h value belongs to Nc1nc(/C(=N/O)C(=O)N[C@@H]2C(=O)N3C(C(=O)O)=C(/C=C4\CCN([C@@H]5CCNC5)C4=O)CS[C@H]23)ns1 [CEFTOBIPROLE] ?
50600
